Target: β1-4 galactosyltransferase (GalT)
Assay: Inhibiting activity of UDP against GalT reaction on a sugar chain (GlcNAc)-fine gold particle complex, tracked by MALDI-TOF MS
Details: GlcNAc-Au 50 μM, UDP-Gal 400 μM, four mU GalT, HEPES buffer (10 mM MnCl2, 0.15 M NaCl), 25° C., 60 minutes; from plot of FIG. 8
MEASUREMENT_TYPE: IC50 (µM)
One number for each entry, in µM.

Task: Form field: reported IC50 of O=c1ccn([C@@H]2O[C@H](COP(=O)(O)OP(=O)(O)O)[C@@H](O)[C@H]2O)c(=O)[nH]1
Output: 300
